Numbers sourced from patent US20170022281A1.

Molecular target: T1, human PRLR (Biacore antigen) (human, UniProt P16471 25-234, limits assumed)
T1 construct: The construct injected over captured antibody is not described (a soluble form is likely); also called huPRLR
T1 sequence: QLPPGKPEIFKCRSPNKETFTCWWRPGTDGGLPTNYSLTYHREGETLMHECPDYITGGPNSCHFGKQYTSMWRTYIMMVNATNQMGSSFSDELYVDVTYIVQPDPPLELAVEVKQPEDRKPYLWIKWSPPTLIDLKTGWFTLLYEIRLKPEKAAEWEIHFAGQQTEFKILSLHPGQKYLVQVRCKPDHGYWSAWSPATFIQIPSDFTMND
Test: SPR Biacore
Please go through the items and note down their pKd.
One number for each entry, as −log10 of the molar value.

Some solved cases for reference:
Binder	Recorded endpoint	Experimental value
Ab39 (antibody, human IgG1, kappa, V domains shown, humanized from Ab7; G1; also called Ab4 HC.1a and Ab4 LC.1a) VH: EVQLVQSGAEVKKPGSSVKVSCKASGYTFTSYWIHWVRQAPGQGLEWIGEIDPSDSYTNYNQKFKGRATLTVDKSSSTAYMELSSLRSEDTAVYYCARSFFTNWFAYWGQGTLVTVSS VL: DVVMTQTPLSLSVTPGQPASISCRSSQSLVHSNGNTYLHWYLQKPGQSPQLLIYKVSNRFSGVPDRFSGSGSGTDFTLKISRVEAEDVGVYFCSQSTHVPFTFGGGTKVEIKR	pKd	8.37
Ab27 (antibody, human IgG1, kappa, V domains shown, humanized from Ab5; G1; also called Ab2 HC.1 and Ab2 LC.1a) VH: EVQLVQSGAEVKKPGSSVKVSCKASGYTFTSFWMHWVRQAPGQGLEWMGVIDPSDTYTNYNQKFKGRVTITADESTSTAYMELSSLRSEDTAVYYCARGDYSNWFTYWGQGTLVTVSS VL: DVVMTQTPLSLSVTPGQPASISCRSSQRLVHSNGNTYLHWYLQKPGQSPQLLIYKVSNRFSGVPDRFSGSGSGTDFTLKISRVEAEDVGVYFCSQSTHVPWTFGGGTKVEIKR	pKd	8.90

Please look up its pKd: Ab6 (antibody, V domains shown, murine monoclonal, isotype G1; also called murine Ab6) VH: QVQLQQPGAELVMPGSSVKLSCKASGYTFTTYWMHWVKQRPGQGLEWIGEIDPSDSYSNYNQKFKDKATLTVDKSSSTAYMQLSSLTSEDSAVYYCARNGGLGPAWFSYWGQGTLVTVSA VL: DIVMTQSQKFMSTTVGDRVSITCKASQYVGTAVAWYQQKPGQSPKLLIYSASNRYTGVPDRFTDSGSGTDFTLTISNLQSEDLADYFCQQYSSYPWTFGGGTKLEIK 9.35
